Origin of values: patent US20220356229A1

Target: SARS-CoV Spike protein (SARS-CoV, UniProt P59594 14-1190)
Record form. Attribute: bead binding signal (median fluorescence, fold over isotype control). Fill in for each entry.
Show the value, then the unit it is measured in.

Query string: I would be grateful if you could share the reported bead binding signal (median fluorescence, fold over isotype control) for antibody 368 (antibody, V domains shown) V domain 1: QITLKESGPTLVKPTETLTLTCAFSGFSLTKTGEAAGWIRQAPGRALEWVTVIFWDDDKRYSPSLQNRLTVTKDTSKNVVVLTMTNVDPVDTATYFCWAMGGPGKEFFGQGTRVAVSS V domain 2: QSVLTQPPSVSGAPGQRVTVSCTGTSSSIGPYSDVHWYQHIPGKAPRLLIFGTSNRPSGVPARFSGSKSGSSASLVIAGLQAEDEADYYCQSYDSSLGEIYVFGTGTTVTVL .
Result string: 1.09 fold over isotype control

Query string: I would be grateful if you could share the reported bead binding signal (median fluorescence, fold over isotype control) for antibody 324 (antibody, V domains shown) VH: QVQLQESGPGLVKPSGTLSLTCAVSGGSISSSNWWSWVRQPPGKGLEWIGEIYHSGSTNYNPSLKSRVTISVDNSKNQFSLKLSSVTAADTAVYYCARESVAAAGISYYYYGMDVWGQGTTVTVSS VL: EIVLTQSPGTLSLSPGERATLSCRASQSVSGRYLAWYQQKPGQAPRLLIYGASSRATGIPDRFSGSGSGTDFTLTISRLEPEDFAVYYCQHYGSSPGTFGQGTRLEIK .
Result string: 1.14 fold over isotype control

Query string: I would be grateful if you could share the reported bead binding signal (median fluorescence, fold over isotype control) for antibody 331 (antibody, V domains shown) V domain 1: QITLKESGPTLVKPTETLTLTCSFSGFSLTKTGEAAGWIRQAPGRALEWVTVIFWDDDKRYSPSLQNRISVTKDTSKNQVVLRMTNVARFDTGTYFCWAMGGPGKEYFGQGTLVAVSS V domain 2: QSVLTQPPSVSGAPGQRVTISCTGTSSSIGPYSDVHWYQHVSGKAPRLLIFGNSNRPSGVPDRFSGSKSGTSASLVIAGLQAEDEADYYCQSYDSSLGEIYVFGTGTTVTVL .
Result string: 1.34 fold over isotype control
